# PROCEDURE TEXT: Plasma clearance in ob/ob mouse at 5 mg/kg, iv or 10 mg/kg, po
# Type: ADME, organism-based
OUTCOME MEASURE: clearance (mL/min/kg)

CC(C)(Oc1ccc(Cl)cc1)C(=O)N[C@H]1C2CC3CC1C[C@](C(=O)NCc1ccc(S(N)(=O)=O)cc1)(C3)C2
15

I. CC(C)(Oc1ccccc1Cl)C(=O)N[C@H]1C2CC3CC1C[C@](C(=O)O)(C3)C2
II. CC(C)(Oc1ccc(Cl)cc1)C(=O)N[C@H]1C2CC3CC1C[C@](C(N)=O)(C3)C2
Prompt: Smaller clearance value, I vs II ? Pick one and reply with its label.
Completion: I

Origin of measurements: ChEMBL document CHEMBL1138420
